Data origin, for the record: patent US20200024330A1

Target: HIV-1 JR-CSF Env R327A (HIV-1 isolate JR-CSF) (UniProt P20871)
Assay: cell-based or functional assay
recorded endpoint: Fold IC50 increase relative to wild-type (fold)
Numeric only. Scale: fold

Query: Which value of Fold IC50 increase relative to wild-type has been reported for PGT-135 (antibody, V domains shown) VH: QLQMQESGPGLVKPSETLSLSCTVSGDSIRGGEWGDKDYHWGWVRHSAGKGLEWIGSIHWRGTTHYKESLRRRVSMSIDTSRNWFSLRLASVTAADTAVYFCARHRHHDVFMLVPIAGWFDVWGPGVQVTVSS VL: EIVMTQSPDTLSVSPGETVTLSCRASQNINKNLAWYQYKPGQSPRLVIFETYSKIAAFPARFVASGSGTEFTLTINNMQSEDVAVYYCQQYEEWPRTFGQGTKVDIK in the records?
Reply: 0.67
